As an illustration, consider measured IC50 for molecules on Receptor tyrosine-protein kinase erbB-2 (Homo sapiens).
Sequence (P04626 whole entry): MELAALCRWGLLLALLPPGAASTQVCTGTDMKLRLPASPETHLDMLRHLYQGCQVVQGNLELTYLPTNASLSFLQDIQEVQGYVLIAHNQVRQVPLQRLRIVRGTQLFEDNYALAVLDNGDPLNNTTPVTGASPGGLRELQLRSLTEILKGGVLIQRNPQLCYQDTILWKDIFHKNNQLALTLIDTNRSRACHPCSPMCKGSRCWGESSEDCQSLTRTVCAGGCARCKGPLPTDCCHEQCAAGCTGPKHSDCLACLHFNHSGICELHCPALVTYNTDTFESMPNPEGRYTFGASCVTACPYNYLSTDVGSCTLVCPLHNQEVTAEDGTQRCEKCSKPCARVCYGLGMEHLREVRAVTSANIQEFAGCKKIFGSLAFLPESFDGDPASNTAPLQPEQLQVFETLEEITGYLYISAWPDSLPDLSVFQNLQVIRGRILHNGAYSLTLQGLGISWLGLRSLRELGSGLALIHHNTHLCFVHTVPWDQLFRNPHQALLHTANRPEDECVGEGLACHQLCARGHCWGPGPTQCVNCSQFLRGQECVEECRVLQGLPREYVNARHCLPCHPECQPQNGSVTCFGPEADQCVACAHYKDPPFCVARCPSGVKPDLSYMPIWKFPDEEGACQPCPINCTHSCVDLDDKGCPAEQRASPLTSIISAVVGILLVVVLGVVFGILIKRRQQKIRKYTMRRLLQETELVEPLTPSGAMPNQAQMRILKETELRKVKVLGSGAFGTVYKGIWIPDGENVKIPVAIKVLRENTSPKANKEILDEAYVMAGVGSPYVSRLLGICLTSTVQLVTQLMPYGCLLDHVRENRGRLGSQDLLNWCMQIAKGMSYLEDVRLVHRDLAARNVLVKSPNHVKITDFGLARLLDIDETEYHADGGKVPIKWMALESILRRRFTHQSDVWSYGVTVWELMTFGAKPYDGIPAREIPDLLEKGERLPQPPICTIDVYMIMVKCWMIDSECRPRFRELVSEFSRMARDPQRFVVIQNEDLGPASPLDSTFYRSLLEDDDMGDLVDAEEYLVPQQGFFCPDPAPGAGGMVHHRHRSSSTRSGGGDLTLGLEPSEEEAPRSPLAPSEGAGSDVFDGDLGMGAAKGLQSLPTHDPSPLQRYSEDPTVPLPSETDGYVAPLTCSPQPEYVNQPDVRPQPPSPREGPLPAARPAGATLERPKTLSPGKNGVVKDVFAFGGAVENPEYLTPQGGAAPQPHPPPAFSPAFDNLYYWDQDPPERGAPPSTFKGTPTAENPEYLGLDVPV

sample_smiles: CSc1ccc(/C=C2\C(=O)Nc3cccc(C)c32)s1
result: 91.4 µM

sample_smiles: C/C(=C1\C(=O)Nc2ccccc21)c1ccc(N2CCCCC2)cc1
result: > 100 µM

sample_smiles: CCc1c(C)[nH]c(/C=C2\C(=O)Nc3ccccc32)c1C
result: > 100 µM

sample_smiles: O=C1Nc2ccc(Cl)cc2/C1=C/c1ccc(N2CCOCC2)cc1
result: > 10 µM

sample_smiles: CC(C)c1cc(/C=C2\C(=O)Nc3ccccc32)cc(C(C)C)c1O
result: 7 µM

Tested system Receptor tyrosine-protein kinase erbB-2 (Homo sapiens); IC50 recorded for Cc1c[nH]c(/C=C2\C(=O)Nc3ccccc32)c1CCC(=O)O was > 100 µM

Tested system Receptor tyrosine-protein kinase erbB-2 (Homo sapiens); IC50 recorded for O=C1Nc2ccccc2/C1=C/c1ccc(N2CCCCC2)cc1 was 92.6 µM

* * *

Measured pIC50 accompanies every entry in the list below.
- assayed_target: Receptor tyrosine-protein kinase erbB-2 (Homo sapiens)
pIC50: −log10 of the molar value.

Reference set (7 entries):
sample_smiles: O=CN1CCN(c2ccc(/C=C3\C(=O)Nc4ccc(Br)cc43)cc2)CC1
reported_metric: pIC50
result: < 4.30
//
sample_smiles: O=C1Nc2ccccc2/C1=C/c1ccc(C(=O)O)cc1
reported_metric: pIC50
result: < 4.00
//
sample_smiles: CN(C)c1ccc(/C=C2\C(=O)Nc3cc(F)ccc32)cc1
reported_metric: pIC50
result: < 4.00
//
sample_smiles: Cc1cccc2c1/C(=C/c1ccc(N3CCOCC3)cc1)C(=O)N2
reported_metric: pIC50
result: 4.18
//
sample_smiles: CCc1c(/C=C2\C(=O)Nc3ccccc32)[nH]c(C)c1C
reported_metric: pIC50
result: < 4.00
//
sample_smiles: Cc1ccc2c(c1)/C(=C/c1[nH]c(C)cc1C)C(=O)N2
reported_metric: pIC50
result: < 4.00
//
sample_smiles: O=C1Nc2ccc([N+](=O)[O-])cc2/C1=C/c1ccc[nH]1
reported_metric: pIC50
result: < 4.00

In plain terms, O=C1Nc2ccccc2/C1=C/c1ccc(O)cc1 has a documented pIC50 of < 4.00
